B1: KRT18 (parent)
chain: KSQDLAKIMADIRAQYDELARKNR

Variants of: B1
ASSAY REMARKS: protein stability index of a GFP-peptide fusion (GPS, HEK-293T) (PSI 1-6); higher = more stable;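 also: lentivirally expressed fusions sorted by FACS into six bins by GFP to DsRed ratio, PSI derived from sequencing read proportions per bin multiplied by bin number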
APPLIED CONDITIONS: c terminus: a fixed tail appended
Record form. Attribute: protein stability index. Fill in for each entry.
Number only, no unit.

// recorded protein stability index for K7G : 3.14

// recorded protein stability index for L19W : 2.38

// recorded protein stability index for S2V : 1.9

// recorded protein stability index for D11H : 2.71

// recorded protein stability index for Q15H : 1.97

// recorded protein stability index for D17K : 2.87

// recorded protein stability index for D11I : 1.88

// recorded protein stability index for R13D : 4.35

// recorded protein stability index for N23A : 2.9

// recorded protein stability index for K1W : 2.28

// recorded protein stability index for E18H : 2.76

// recorded protein stability index for A20E : 4.03

// recorded protein stability index for A20M : 2.51

// recorded protein stability index for Q15S : 2.57

// recorded protein stability index for A6G : 3.31

// recorded protein stability index for Q15L : 1.9

// recorded protein stability index for L19Q : 3.59

// recorded protein stability index for A10P : 4.14

// recorded protein stability index for A14K : 2.4

// recorded protein stability index for M9L : 2.23

// recorded protein stability index for K1A : 2.58

// recorded protein stability index for I12P : 4.56

// recorded protein stability index for A20I : 2.47

// recorded protein stability index for Q15V : 2.06

// recorded protein stability index for K1F : 3.1

// recorded protein stability index for I8A : 3.06

// recorded protein stability index for L5R : 3.83

// recorded protein stability index for A6R : 2.54

// recorded protein stability index for Q15K : 2.4

// recorded protein stability index for L5I : 2.38

// recorded protein stability index for S2W : 1.86

// recorded protein stability index for A10Q : 2.89

// recorded protein stability index for K1R : 2.62

// recorded protein stability index for I8Q : 4.1

// recorded protein stability index for I12D : 4.77

// recorded protein stability index for E18S : 2.72

// recorded protein stability index for I8E : 4.17

// recorded protein stability index for L5C : 3.02

// recorded protein stability index for N23Y : 1.94

// recorded protein stability index for I12E : 5.46

// recorded protein stability index for N23L : 2.51

// recorded protein stability index for A14T : 2.58

// recorded protein stability index for Q3I : 2.35

// recorded protein stability index for I8S : 4.34

// recorded protein stability index for A14N : 2.73

// recorded protein stability index for Y16A : 4.24

// recorded protein stability index for D11P : 3.56

// recorded protein stability index for Q3H : 2.13

// recorded protein stability index for I8Y : 3.23

// recorded protein stability index for M9G : 4.12

// recorded protein stability index for R21L : 2.5

// recorded protein stability index for L5P : 3.59

// recorded protein stability index for I12K : 4.45

// recorded protein stability index for D11W : 1.88

// recorded protein stability index for Y16F : 2.83

// recorded protein stability index for R24K : 3.46

// recorded protein stability index for R21T : 2.83

// recorded protein stability index for Q3L : 2.49

// recorded protein stability index for A14P : 3.66

// recorded protein stability index for D17L : 2.29
